# Measured target: M2 (Homo sapiens, UniProt P08172)
# Sequence (P08172 whole entry): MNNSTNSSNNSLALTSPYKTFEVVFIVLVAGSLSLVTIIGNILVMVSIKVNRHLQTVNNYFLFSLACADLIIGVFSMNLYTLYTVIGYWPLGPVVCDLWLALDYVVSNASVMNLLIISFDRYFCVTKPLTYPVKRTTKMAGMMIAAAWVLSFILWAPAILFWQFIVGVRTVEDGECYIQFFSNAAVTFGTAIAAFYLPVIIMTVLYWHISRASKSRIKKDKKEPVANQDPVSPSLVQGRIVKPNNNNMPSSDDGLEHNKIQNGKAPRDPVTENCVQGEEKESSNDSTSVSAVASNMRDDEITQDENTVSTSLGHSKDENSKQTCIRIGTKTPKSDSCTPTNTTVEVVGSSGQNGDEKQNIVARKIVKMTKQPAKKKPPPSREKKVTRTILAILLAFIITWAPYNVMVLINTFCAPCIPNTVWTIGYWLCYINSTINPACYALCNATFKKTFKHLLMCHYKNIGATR
# Experiment description: M2 functional assay
pIC50: −log10 of the molar value.
Measured parameter: pIC50

>>> print(df.to_string())
                                   molecule  measured_value
0  COc1cc2c(NC3CCN(C(C)C)CC3)nc(C3CCCCC3)nc2cc1OCCCN1CCCC1 [UNC0638]            6.32

###

# Test system: H3K9me2 levels in MDA-MB-231 cells
# Experiment description: H3K9me2 in-cell western, MDA-MB-231
# Format: cell-based, human
# Run conditions: read-out: IC50 for reduction of H3K9me2 levels; MDA-MB-231 cells, 48 h exposure, in-cell western
Parameter: IC50. Scope: all listed entries.
Measured parameter: IC50

>>> print(df.to_string())
                                 mol_smiles  measured_parameter  measured_value
0  COc1cc2c(N(C)C3CCN(C(C)C)CC3)nc(C3CCCCC3)nc2cc1OCCCN1CCCC1                IC50       > 5000 nM
1  COc1cc2c(NC3CCN(C(C)C)CC3)nc(C3CCCCC3)nc2cc1OCCCN1CCCC1                IC50           80 nM

###

# Measured target: SUV39H1 (Homo sapiens)
# Sequence (O43463 whole entry, species assumed): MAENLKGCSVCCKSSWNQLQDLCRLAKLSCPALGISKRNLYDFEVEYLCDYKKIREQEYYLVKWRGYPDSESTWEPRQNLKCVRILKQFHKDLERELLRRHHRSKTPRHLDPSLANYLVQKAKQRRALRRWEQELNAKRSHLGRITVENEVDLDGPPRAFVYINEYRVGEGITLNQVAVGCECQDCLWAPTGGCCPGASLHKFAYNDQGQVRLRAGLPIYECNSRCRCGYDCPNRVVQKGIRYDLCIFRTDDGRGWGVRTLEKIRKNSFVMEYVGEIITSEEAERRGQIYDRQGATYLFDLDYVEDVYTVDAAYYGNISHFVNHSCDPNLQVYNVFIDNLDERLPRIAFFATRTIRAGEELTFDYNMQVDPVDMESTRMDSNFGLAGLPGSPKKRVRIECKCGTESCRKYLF
# Experiment description: BPS Bioscience assay, SUV39H1
# Assay type: biochemical
Measured parameter: IC50

In [3]: df
Out[3]:
                                   compound  measured_parameter  measured_value
0  COc1cc2c(NC3CCN(C(C)C)CC3)nc(C3CCCCC3)nc2cc1OCCCN1CCCC1 [UNC0638]                IC50         > 10 µM

###

# Measured target: SETD7 (Homo sapiens, UniProt Q8WTS6)
# Sequence (Q8WTS6 1-366): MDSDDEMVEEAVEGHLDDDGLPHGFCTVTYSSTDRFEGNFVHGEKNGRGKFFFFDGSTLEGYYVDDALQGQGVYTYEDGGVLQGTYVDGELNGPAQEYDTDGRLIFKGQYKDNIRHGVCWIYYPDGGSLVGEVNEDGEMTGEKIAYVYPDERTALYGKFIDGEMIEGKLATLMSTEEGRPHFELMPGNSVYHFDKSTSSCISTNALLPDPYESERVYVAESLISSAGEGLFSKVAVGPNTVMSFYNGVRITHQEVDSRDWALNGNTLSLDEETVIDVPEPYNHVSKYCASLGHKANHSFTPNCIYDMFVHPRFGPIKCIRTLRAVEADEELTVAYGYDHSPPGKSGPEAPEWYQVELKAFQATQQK
# Experiment description: SAHH-coupled assay, SETD7
# Format: biochemical
Measured parameter: IC50

>>> df
                                 mol_smiles                       measured_target  measured_value
0  COc1cc2c(NC3CCN(C(C)C)CC3)nc(C3CCCCC3)nc2cc1OCCCN1CCCC1  SETD7 (Homo sapiens, UniProt Q8WTS6)         > 10 µM

###

# System: H3K9me2 levels in PC3 cells
# Experiment description: H3K9me2 in-cell western, PC3
# Format: cell-based
# Run conditions: Homo sapiens, PC-3, read-out: IC50 for reduction of H3K9me2 levels
pIC50: −log10 of the molar value.
Measured parameter: pIC50

>>> print(df.to_string())
                                 mol_smiles  measured_parameter  measured_value
0  COc1cc2c(NC3CCN(C(C)C)CC3)nc(C3CCCCC3)nc2cc1OCCCN1CCCC1               pIC50            7.23
